# inhibition values compiled below
# studySystem: FAD-linked sulfhydryl oxidase ALR (Homo sapiens)
# method: ALR-catalysed DTT oxidation blockers – biochemical, H2O2 detection, HRP-luminol luminescence, single point, primary screen (AID 485317)
# assayContext: purified ALR, active compounds read high, concentration not given here
Hit rate of the full screen: of about 290,000 compounds, about 11,000 (3.8%) were called active. Many of the other results were omitted from the sample, so actives are more common in it than they were.
Only the number, expressed in %, is required.

// solved cases for inhibition follow
> print(dat)
                                   compound  assayreadout  measured
1     NC(=O)CSc1nnc(NC(=O)c2ccc3ccccc3c2)s1    inhibition     -2.49
2  CC1CCN(C(=O)c2cccc(S(=O)(=O)N3CCCc4ccccc43)c2)CC1    inhibition     -15.4
3         O=C(CSCc1ccccc1Cl)NNC(=O)c1ccccc1    inhibition      99.6
4  C[C@@H]1CN([C@@H](C)CO)C(=O)c2cccc(NS(=O)(=O)c3ccc(F)cc3)c2O[C@H]1CN(C)C(=O)NC1CCCCC1    inhibition     -2.04
5  O=C(Cn1nc(Cc2cccnc2)c2ccccc2c1=O)NCC1COc2ccccc2O1 (stereo not given)    inhibition        -6

INPUT: # query: inhibition of entry CCCCN(C(=O)C1=NN(c2cc(C)ccc2C)C(=O)CC1)c1c(N)n(CCC)c(=O)[nH]c1=O
OUTPUT: 0.0423

INPUT: Requested field: inhibition. Item: Cc1ccnc(N2CCCC(C(=O)Nc3cc(F)ccc3C)C2)n1 (stereo not given)
OUTPUT: 87.3

INPUT: Data request, read-out inhibition, for O=C(CNS(=O)(=O)c1ccc2c(c1)OCCCO2)N1CCN(c2ccc(F)cc2)CC1
OUTPUT: 3.71
